test system: Escherichia coli; test: Antimicrobial activity against Escherichia coli ATCC 9637 after 24 hrs by standard broth microdilution method; format: functional; conditions: ATCC 9637, 24 h
outcome_measure: MIC (µg/mL)

- smiles_notation: "CN[C@H](CC(C)C)C(=O)N[C@H]1C(=O)N[C@@H](CC(N)=O)C(=O)N[C@H]2C(=O)N[C@H]3C(=O)N[C@H](C(=O)N[C@H](C(=O)O)c4cc(O)cc(O)c4-c4cc3ccc4O)[C@H](O)c3ccc(c(Cl)c3)Oc3cc2cc(c3O[C@@H]2O[C@H](CO)[C@@H](O)[C@H](O)[C@H]2O[C@H]2C[C@](C)(N)[C@H](O)[C@H](C)O2)Oc2ccc(cc2Cl)[C@H]1O"
  qualifier_symbol: ">"
  measured_result: 50
- smiles_notation: "CCn1cc(C(=O)O)c(=O)c2cc(F)c(N3CCNCC3)cc21"
  qualifier_symbol: "="
  measured_result: 0.36
- smiles_notation: "COC(=O)/C(C)=C/c1ccc(Oc2ccc(N/C(=N/c3cccc(Cl)c3)NCCNc3ccnc4cc(Cl)ccc34)cc2)cc1"
  qualifier_symbol: "="
  measured_result: 12.5
- smiles_notation: "Clc1ccc(/N=C(\\NCCCNc2ccnc3cc(Cl)ccc23)Nc2ccccc2Oc2cc(Cl)ccc2Cl)cc1"
  qualifier_symbol: "="
  measured_result: 12.5
- smiles_notation: "COc1ccc(Oc2ccc(N/C(=N/c3ccc(Cl)cc3)NCCNc3ccnc4cc(Cl)ccc34)cc2)cc1"
  qualifier_symbol: "="
  measured_result: 6.25
- smiles_notation: "COC(=O)/C(C)=C/c1ccc(Oc2ccccc2N/C(=N/c2ccc(Cl)cc2)NCCCNc2ccnc3cc(Cl)ccc23)cc1"
  qualifier_symbol: "="
  measured_result: 12.5

* * *

Attribute: MIC
system: Escherichia coli; experiment: Antimicrobial activity against Escherichia coli ATCC 9637 after 24 hrs by standard broth microdilution method; format: functional; details: ATCC 9637, 24 h

- smiles_notation: "Clc1ccc(Cl)c(Oc2ccccc2N/C(=N/c2ccccc2)NCCNc2ccnc3cc(Cl)ccc23)c1"
  MIC: "25 µg/mL"
- smiles_notation: "COC(=O)/C(C)=C/c1ccc(Oc2ccc(N/C(=N/c3cccc(Cl)c3)NCCCCNc3ccnc4cc(Cl)ccc34)cc2)cc1"
  MIC: "12.5 µg/mL"
- smiles_notation: "COc1ccc(Oc2ccc(N/C(=N/c3ccc(Cl)cc3)NCCCNc3ccnc4cc(Cl)ccc34)cc2)cc1"
  MIC: "12.5 µg/mL"
- smiles_notation: "COc1ccc(Oc2ccccc2N/C(=N/c2cccc(Cl)c2)NCCCNc2ccnc3cc(Cl)ccc23)cc1"
  MIC: "3.12 µg/mL"
- smiles_notation: "COC(=O)/C(C)=C/c1ccc(Oc2ccccc2N/C(=N/c2ccc(Cl)cc2)NCCNc2ccnc3cc(Cl)ccc23)cc1"
  MIC: "50 µg/mL"
- smiles_notation: "Clc1ccc(/N=C(\\NCCCCNc2ccnc3cc(Cl)ccc23)Nc2ccc(Oc3cc(Cl)ccc3Cl)cc2)cc1"
  MIC: "6.25 µg/mL"
- smiles_notation: "Clc1ccc(/N=C(\\NCCNc2ccnc3cc(Cl)ccc23)Nc2ccccc2Oc2cc(Cl)ccc2Cl)cc1"
  MIC: "12.5 µg/mL"
- smiles_notation: "COc1ccc(Oc2ccc(N/C(=N/c3cccc(Cl)c3)NCCCNc3ccnc4cc(Cl)ccc34)cc2)cc1"
  MIC: "6.25 µg/mL"
- smiles_notation: "COc1ccc(Oc2ccc(N/C(=N/c3cccc(Cl)c3)NCCCCNc3ccnc4cc(Cl)ccc34)cc2)cc1"
  MIC: "25 µg/mL"
- smiles_notation: "Clc1ccc(Cl)c(Oc2ccc(N/C(=N/c3ccccc3)NCCCNc3ccnc4cc(Cl)ccc34)cc2)c1"
  MIC: "3.12 µg/mL"
- smiles_notation: "Clc1cccc(/N=C(\\NCCCNc2ccnc3cc(Cl)ccc23)Nc2ccccc2Oc2cc(Cl)ccc2Cl)c1"
  MIC: "6.25 µg/mL"
- smiles_notation: "COc1ccc(Oc2ccccc2N/C(=N/c2ccccc2)NCCCNc2ccnc3cc(Cl)ccc23)cc1"
  MIC: "50 µg/mL"
- smiles_notation: "COc1ccc(Oc2ccccc2N/C(=N/c2cccc(Cl)c2)NCCNc2ccnc3cc(Cl)ccc23)cc1"
  MIC: "6.25 µg/mL"
- smiles_notation: "COC(=O)/C(C)=C/c1ccc(Oc2ccccc2N/C(=N/c2cccc(Cl)c2)NC2CC2)cc1"
  MIC: "> 50 µg/mL"
- smiles_notation: "COC(=O)/C(C)=C/c1ccc(Oc2ccccc2N/C(=N/c2cccc(Cl)c2)NCCNc2ccnc3cc(Cl)ccc23)cc1"
  MIC: "50 µg/mL"
- smiles_notation: "Clc1ccc(Cl)c(Oc2ccc(N/C(=N/c3ccccc3)NCCNc3ccnc4cc(Cl)ccc34)cc2)c1"
  MIC: "6.25 µg/mL"
- smiles_notation: "COC(=O)/C(C)=C/c1ccc(Oc2ccc(N/C(=N/c3ccc(Cl)cc3)NCCCCNc3ccnc4cc(Cl)ccc34)cc2)cc1"
  MIC: "25 µg/mL"

* * *

Attribute: IC50
system: Plasmodium falciparum; test: Antiplasmodial activity against chloroquine-resistant Plasmodium falciparum K1 infected after 72 hrs by Malaria SYBR Green I-staining based fluorescence assay; type: functional, organism-based; conditions: K1, 72 h

- smiles_notation: "COC(=O)/C(C)=C/c1ccc(Oc2ccccc2N/C(=N/c2cccc(Cl)c2)NCc2ccccc2)cc1"
  IC50: "> 1200 nM"
- smiles_notation: "Clc1cccc(/N=C(\\NCCNc2ccnc3cc(Cl)ccc23)Nc2ccc(Oc3cc(Cl)ccc3Cl)cc2)c1"
  IC50: "> 817 nM"
- smiles_notation: "Clc1cccc(/N=C(\\NCCCCNc2ccnc3cc(Cl)ccc23)Nc2ccc(Oc3cc(Cl)ccc3Cl)cc2)c1"
  IC50: "> 782 nM"
- smiles_notation: "Clc1ccc(Cl)c(Oc2ccc(N/C(=N/c3ccccc3)NCCNc3ccnc4cc(Cl)ccc34)cc2)c1"
  IC50: "> 866 nM"
- smiles_notation: "COC(=O)/C(C)=C/c1ccc(Oc2ccccc2N/C(=N/c2cccc(Cl)c2)NCCCCNc2ccnc3cc(Cl)ccc23)cc1"
  IC50: "> 800 nM"
- smiles_notation: "COC(=O)/C(C)=C/c1ccc(Oc2ccccc2N/C(=N/c2ccccc2)NC2CC2)cc1"
  IC50: "> 1200 nM"
- smiles_notation: "COc1ccc(Oc2ccccc2N/C(=N/c2ccccc2)NCCCCNc2ccnc3cc(Cl)ccc23)cc1"
  IC50: "> 1000 nM"
- smiles_notation: "COc1ccc(Oc2ccccc2N/C(=N/c2cccc(Cl)c2)NCCCCNc2ccnc3cc(Cl)ccc23)cc1"
  IC50: "> 1000 nM"
- smiles_notation: "COc1ccc(Oc2ccc(N/C(=N/c3cccc(Cl)c3)NCCNc3ccnc4cc(Cl)ccc34)cc2)cc1"
  IC50: "83.3 nM"
- smiles_notation: "COC(=O)/C(C)=C/c1ccc(Oc2ccccc2N/C(=N/c2ccccc2)NCc2ccccc2)cc1"
  IC50: "> 1200 nM"
- smiles_notation: "COC(=O)/C(C)=C/c1ccc(Oc2ccccc2N/C(=N/c2cccc(Cl)c2)NC2CC2)cc1"
  IC50: "> 1200 nM"
- smiles_notation: "COC(=O)/C(C)=C/c1ccc(Oc2ccccc2N/C(=N/c2ccc(Cl)cc2)NCCCCNc2ccnc3cc(Cl)ccc23)cc1"
  IC50: "41.2 nM"
- smiles_notation: "COC(=O)/C(C)=C/c1ccc(Oc2ccc(N/C(=N/c3cccc(Cl)c3)NCCNc3ccnc4cc(Cl)ccc34)cc2)cc1"
  IC50: "123 nM"
- smiles_notation: "Clc1ccc(/N=C(\\NCCCNc2ccnc3cc(Cl)ccc23)Nc2ccccc2Oc2cc(Cl)ccc2Cl)cc1"
  IC50: "> 800 nM"
- smiles_notation: "COC(=O)/C(C)=C/c1ccc(Oc2ccc(N/C(=N/c3ccc(Cl)cc3)NCCNc3ccnc4cc(Cl)ccc34)cc2)cc1"
  IC50: "> 800 nM"
- smiles_notation: "Clc1cccc(/N=C(\\NCCCNc2ccnc3cc(Cl)ccc23)Nc2ccc(Oc3cc(Cl)ccc3Cl)cc2)c1"
  IC50: "> 800 nM"
- smiles_notation: "COc1ccc(Oc2ccc(N/C(=N/c3ccccc3)NCCNc3ccnc4cc(Cl)ccc34)cc2)cc1"
  IC50: "635 nM"
- smiles_notation: "COc1ccc(Oc2ccccc2N/C(=N/c2ccc(Cl)cc2)NCCCNc2ccnc3cc(Cl)ccc23)cc1"
  IC50: "> 800 nM"
- smiles_notation: "Clc1ccc(/N=C(\\NCCNc2ccnc3cc(Cl)ccc23)Nc2ccc(Oc3cc(Cl)ccc3Cl)cc2)cc1"
  IC50: "54.1 nM"
- smiles_notation: "Clc1ccc(Cl)c(Oc2ccc(N/C(=N/c3ccccc3)NCCCNc3ccnc4cc(Cl)ccc34)cc2)c1"
  IC50: "> 846 nM"
- smiles_notation: "COC(=O)/C(C)=C/c1ccc(Oc2ccc(N/C(=N/c3ccccc3)NCCCCNc3ccnc4cc(Cl)ccc34)cc2)cc1"
  IC50: "76.7 nM"
- smiles_notation: "COc1ccc(Oc2ccc(N/C(=N/c3ccc(Cl)cc3)NCCCNc3ccnc4cc(Cl)ccc34)cc2)cc1"
  IC50: "> 800 nM"
